System: purified human Hsp90
Construct: purified human Hsp90 (Stressgen, SPP-770)
PROCEDURE_DETAILS: Hsp90 binding assay: displacement of BODIPY-labeled geldanamycin measured by fluorescence polarization
CONDITION: 5 μM compound; BODIPY-GM 10 nM, Hsp90 30 nM, overnight at room temperature
MEASUREMENT_TYPE: GM displacement from purified Hsp90 measured by FP Inhibition by 5 μM compd. (%)

>  <COMPOUND>
COc1ccc(C#N)c(Sc2nc3c(N)ncn(CCC4CCN(C(=O)CO)CC4)c-3n2)c1

>  <MEASURED_VALUE>
17.0

$$$$

I: C[C@H](NC(=O)OC(C)(C)C)C(=O)N1CCCC(Cn2cnc(N)c3nc(Sc4nc5cccc(Cl)c5s4)nc2-3)C1 (stereo partly drawn)
II: CC(C)C(=O)N1CCC(CCn2cnc(N)c3nc(Sc4cc5c(cc4Br)OCO5)nc2-3)CC1
Consider I and II . Which of these has its GM displacement from purified Hsp90 measured by FP Inhibition by 5 μM compd. (%) at a higher number? // respond with label for picked entry
II
